System: SK-OV-3
PROTOCOL SUMMARY: Solid tumor cell growth inhibition, MTT, 72 h
Type: cell-based
SETTINGS: Homo sapiens, SK-OV-3; 72 h, MTT; read-out: IC90 SK-OV-3
Note to self: IC90 under 5 µg/mL means 1, ties and anything higher get 0.

# count of solved cases: 5
Q) Find out if reported IC90 for `C=C1C(=O)[C@]23[C@H](OC(=O)C4CCN(S(=O)(=O)c5ccccc5)CC4)[C@H]1CC[C@H]2[C@@]12CO[C@@]3(O)[C@@H](O)[C@@H]1C(C)(C)CCC2=O` is less than 5 µg/mL
A) 0

Q) Report whether reported IC90 is lower than 5 µg/mL (strictly) for `C=C1C(=O)[C@]23[C@H](OC(=O)c4ccncc4)[C@H]1CC[C@H]2[C@@]12CO[C@@]3(O)[C@@H](O)[C@@H]1C(C)(C)CCC2=O`
A) 0

Q) For `C=C1C(=O)[C@]23[C@H](OC(=O)c4ccccc4Br)[C@H]1CC[C@H]2[C@@]12CO[C@@]3(O)[C@@H](O)[C@@H]1C(C)(C)CCC2=O` , is the recorded IC90 below the cut-off of 5 µg/mL?
A) 0

Q) Please let me know if `C=C1C(=O)[C@]23[C@H](OC(=O)c4cccs4)[C@H]1CC[C@H]2[C@@]12CO[C@@]3(O)[C@@H](O)[C@@H]1C(C)(C)CCC2=O` shows IC90 below 5 µg/mL.
A) 1

Q) Consider the compound `C=C1C(=O)[C@]23[C@H](OC(=O)c4ccc(OC)c(OC)c4)[C@H]1CC[C@H]2[C@@]12CO[C@@]3(O)[C@@H](O)[C@@H]1C(C)(C)CCC2=O` . Is its IC90 strictly less than 5 µg/mL?
A) 1

Continuing:
Q) Hi there! Is IC90 for `C=C1C(=O)[C@]23[C@H](OC(=O)C4CCN(S(=O)(=O)c5cccc([N+](=O)[O-])c5)CC4)[C@H]1CC[C@H]2[C@@]12CO[C@@]3(O)[C@@H](O)[C@@H]1C(C)(C)CCC2=O` below 5 µg/mL, do you know?
A) 0

Q) I'd appreciate it if you could check whether `C=C1C(=O)[C@]23[C@H](OC(=O)/C=C/c4ccccc4)[C@H]1CC[C@H]2[C@@]12CO[C@@]3(O)[C@@H](O)[C@@H]1C(C)(C)CC[C@@H]2OC(C)=O` has IC90 smaller than 5 µg/mL.
A) 1

Q) hey, is IC90 for C=C1C(=O)[C@]23[C@H](OC(=O)C4CCC(NC(=O)c5ccccn5)CC4)[C@H]1CC[C@H]2[C@@]12CO[C@@]3(O)[C@@H](O)[C@@H]1C(C)(C)CCC2=O (some centres unmarked) lower than 5 µg/mL or not?
A) 0

Q) Does the reported IC90 of `C=C1C(=O)[C@]23[C@H](OC(=O)c4ccc(C)cc4)[C@H]1CC[C@H]2[C@@]12CO[C@@]3(O)[C@@H](O)[C@@H]1C(C)(C)CCC2=O` stay below 5 µg/mL?
A) 1

====

# IC50 per record follows
Test system: CNE
PROTOCOL SUMMARY: Solid tumor cell growth inhibition, MTT, 72 h
Type: cell-based, human
SETTINGS: Homo sapiens, CNE; 72 h, MTT
Experimental: 6000 well-growing human solid tumor cells were obtained and inoculated into wells of a 96-well cell culture plate. The culture medium was DMEM High Glucose cell culture medium containing 10% fetal bovine serum. The plate was placed in a carbon dioxide cell incubator (5% CO2) at 37° C. and incubated for 24 hours. […] Then the viable cell concentration was determined by MTT method.
# output: number + unit

Record excerpt, results attached:
Q) Can you share its IC50? I mean this compound: `C=C1C(=O)[C@]23[C@H](OC(=O)C4CC4)[C@H]1CC[C@H]2[C@@]12CO[C@@]3(O)[C@@H](O)[C@@H]1C(C)(C)CCC2=O`
A) 1.13 µg/mL

Q) What value of measured IC50 is listed for C=C1C(=O)[C@]23[C@H](OC(=O)C4CCC(NC(=O)c5ccccn5)CC4)[C@H]1CC[C@H]2[C@@]12CO[C@@]3(O)[C@@H](O)[C@@H]1C(C)(C)CCC2=O (some centres unmarked) ?
A) 1.52 µg/mL

Q) So what does the record say about IC50 for `C=C1C(=O)[C@]23[C@H](OC(=O)c4ccc(OC)c(OC)c4)[C@H]1CC[C@H]2[C@@]12CO[C@@]3(O)[C@@H](O)[C@@H]1C(C)(C)CCC2=O` ?
A) 1.05 µg/mL

---
Q) Find the recorded IC50 belonging to `C=C1C(=O)[C@]23[C@H](OC(=O)/C=C/c4ccccc4)[C@H]1CC[C@H]2[C@@]12CO[C@@]3(O)[C@@H](O)[C@@H]1C(C)(C)CCC2=O` and report it.
A) 7.19 µg/mL

Q) Sample `C=C1C(=O)[C@]23[C@H](OC(=O)C4CCN(S(=O)(=O)CC)CC4)[C@H]1CC[C@H]2[C@@]12CO[C@@]3(O)[C@@H](O)[C@@H]1C(C)(C)CCC2=O` — what was its IC50?
A) 3.29 µg/mL

====

IC90: recorded values
Test system: MGC-803
PROTOCOL SUMMARY: Solid tumor cell growth inhibition, MTT, 72 h
Assay type: cell-based, human
SETTINGS: Homo sapiens, MGC-803; 72 h, MTT
Dear colleague, please return just the value in µg/mL, with no unit written.

Q) Which IC90 is reported with MGC-803 for this entry: `C=C1C(=O)[C@]23[C@H](OC(=O)/C=C/c4ccccc4)[C@H]1CC[C@H]2[C@@]12CO[C@@]3(O)[C@@H](O)[C@@H]1C(C)(C)CC[C@@H]2OC(C)=O` ?
A) 12.1

New cases:
Q) Please provide the recorded IC90 for `C=C1C(=O)[C@]23[C@H](OC(=O)c4cccnc4)[C@H]1CC[C@H]2[C@@]12CO[C@@]3(O)[C@@H](O)[C@@H]1C(C)(C)CCC2=O` , tested on MGC-803.
A) 11.9

Q) Give MGC-803 IC90 for `C=C1C(=O)[C@]23[C@H](OC(=O)/C=C/c4ccccc4)[C@H]1CC[C@H]2[C@@]12CO[C@@]3(O)[C@@H](O)[C@@H]1C(C)(C)CCC2=O`
A) 12

Q) Kindly state the measured IC90 obtained for `C=C1C(=O)[C@]23[C@H](OC(=O)c4ccc(OC)cc4)[C@H]1CC[C@H]2[C@@]12CO[C@@]3(O)[C@@H](O)[C@@H]1C(C)(C)CCC2=O` with MGC-803.
A) 5.4

Q) Form field: IC90 recorded for `C=C1C(=O)[C@]23[C@H](OC(=O)c4cccc(C)c4)[C@H]1CC[C@H]2[C@@]12CO[C@@]3(O)[C@@H](O)[C@@H]1C(C)(C)CCC2=O` with MGC-803 (enter value)
A) 3.89

Q) // fetch MGC-803 IC90 for C=C1C(=O)[C@]23[C@H](OC(=O)c4ccc(C)cc4)[C@H]1CC[C@H]2[C@@]12CO[C@@]3(O)[C@@H](O)[C@@H]1C(C)(C)CCC2OC(C)=O (stereo partly drawn)
A) 6.3

====

Tested on: CNE
PROTOCOL SUMMARY: Solid tumor cell growth inhibition, MTT, 72 h
Type: cell-based, human
SETTINGS: Homo sapiens, CNE; 72 h, MTT
Mark TRUE only for IC50 values smaller than 2 µg/mL; exact matches and larger values are FALSE.

Q) API: query returns whether the compound falls strictly under 2 µg/mL in IC50. Query: `C=C1C(=O)[C@]23[C@H](OC(=O)c4cccc(C)c4)[C@H]1CC[C@H]2[C@@]12CO[C@@]3(O)[C@@H](O)[C@@H]1C(C)(C)CCC2=O`
A) FALSE

***
Q) Dear reviewer, please state whether `C=C1C(=O)[C@]23[C@H](OC(=O)c4ccc(OC)cc4)[C@H]1CC[C@H]2[C@@]12CO[C@@]3(O)[C@@H](O)[C@@H]1C(C)(C)CCC2=O` has IC50 strictly beneath 2 µg/mL.
A) TRUE

Q) In plain terms, does `C=C1C(=O)[C@]23[C@H](OC(=O)c4ccncc4)[C@H]1CC[C@H]2[C@@]12CO[C@@]3(O)[C@@H](O)[C@@H]1C(C)(C)CCC2=O` come in under 2 µg/mL for IC50?
A) FALSE

Q) Determine if `C=C1C(=O)[C@]23[C@H](OC(=O)c4ccc(C)cc4)[C@H]1CC[C@H]2[C@@]12CO[C@@]3(O)[C@@H](O)[C@@H]1C(C)(C)CCC2=O` shows IC50 strictly lower than 2 µg/mL.
A) TRUE

Q) Does the reported IC50 of C=C1C(=O)[C@]23[C@H](OC(=O)c4ccc(C)cc4)[C@H]1CC[C@H]2[C@@]12CO[C@@]3(O)[C@@H](O)[C@@H]1C(C)(C)CCC2OC(C)=O (some centres unmarked) stay below 2 µg/mL?
A) TRUE

====

Tested on: A549
PROTOCOL SUMMARY: Solid tumor cell growth inhibition, MTT, 72 h
Format: cell-based
SETTINGS: Homo sapiens
List of IC50 values.
# output: numeric value plus its unit

Q) Look at this compound and give its reported IC50. `C=C1C(=O)[C@]23[C@H](OC(=O)c4ccncc4)[C@H]1CC[C@H]2[C@@]12CO[C@@]3(O)[C@@H](O)[C@@H]1C(C)(C)CCC2=O`
A) 5.55 µg/mL

More entries:
Q) Which value of IC50 has been reported for C=C1C(=O)[C@]23[C@H](OC(=O)C4CCC(NC(=O)c5ccccn5)CC4)[C@H]1CC[C@H]2[C@@]12CO[C@@]3(O)[C@@H](O)[C@@H]1C(C)(C)CCC2=O (stereo partly drawn) in the records?
A) 5.07 µg/mL

Q) Quick one: IC50 for `C=C1C(=O)[C@]23[C@H](OC(=O)c4ccccc4)[C@H]1CC[C@H]2[C@@]12CO[C@@]3(O)[C@@H](O)[C@@H]1C(C)(C)CCC2=O` ?
A) 2.6 µg/mL

Q) Param item = `C=C1C(=O)[C@]23[C@H](OC(=O)c4ccc(OC)c(OC)c4)[C@H]1CC[C@H]2[C@@]12CO[C@@]3(O)[C@@H](O)[C@@H]1C(C)(C)CCC2=O` ; retrieve measured IC50.
A) 2.38 µg/mL

Q) Dear colleague, I am looking for the recorded IC50 of the following compound: `C=C1C(=O)[C@]23[C@H](OC(=O)c4ccc(Cl)cc4)[C@H]1CC[C@H]2[C@@]12CO[C@@]3(O)[C@@H](O)[C@@H]1C(C)(C)CCC2=O`
A) 2.83 µg/mL

Q) // IC50 lookup, key: C=C1C(=O)[C@]23[C@H](OC(=O)c4ccc(OC)cc4)[C@H]1CC[C@H]2[C@@]12CO[C@@]3(O)[C@@H](O)[C@@H]1C(C)(C)CCC2OC(C)=O (stereo partly drawn)
A) 2.38 µg/mL
